Assay: Toxicity in female ICR mouse assessed as survival rate at 300 mg/kg, iv administered as single dose for 14 days
Type: organism-based
Settings: in vivo, time 14 day
QUANTITY_NAME: survival at 336 h (%)
Kindly provide the numeric value in % only, without the unit symbol.

**Query** Tell me survival at 336 h reported for CN1C(=S)N(C2CCCCC2)C(=O)/C1=C\c1ccc(N(C)CCO)cc1
**Result** 100

----------
Assay: AUClast in rat at 20 mg/kg, po measured after 24 hrs by HPLC-UV method
Assay type: ADME, organism-based
Design: dose 20 mg/kg, time 24 hrs, route po
Settings: in vivo
QUANTITY_NAME: AUC(0-t) at 24 h (ng·h/mL)
Kindly provide the numeric value in ng·h/mL only, without the unit symbol.

**Query** Tell me AUC(0-t) at 24 h reported for CN1C(=S)N(C2CCCCC2)C(=O)/C1=C\c1ccc(N(C)CCO)cc1
**Result** 4160

----------
Assay: Permeability coefficient of the compound across blood brain barrier at pH 7.4 at 50 uM incubated for 4 hrs by PAMPA assay
Assay type: ADME
Settings: read-out: permeability
QUANTITY_NAME: Papp at 4 h, 50 µM (×10⁻⁶ cm/s)
Kindly provide the numeric value in ×10⁻⁶ cm/s only, without the unit symbol.

**Query** Tell me Papp at 4 h, 50 µM reported for CC(=O)[C@H]1CC[C@H]2[C@@H]3CCC4=CC(=O)CC[C@]4(C)[C@H]3CC[C@]12C [PROGESTERONE]
**Result** 34.7

----------
Molecular target: NADPH oxidase 4 (Homo sapiens, UniProt Q9NPH5)
Sequence (Q9NPH5 whole entry): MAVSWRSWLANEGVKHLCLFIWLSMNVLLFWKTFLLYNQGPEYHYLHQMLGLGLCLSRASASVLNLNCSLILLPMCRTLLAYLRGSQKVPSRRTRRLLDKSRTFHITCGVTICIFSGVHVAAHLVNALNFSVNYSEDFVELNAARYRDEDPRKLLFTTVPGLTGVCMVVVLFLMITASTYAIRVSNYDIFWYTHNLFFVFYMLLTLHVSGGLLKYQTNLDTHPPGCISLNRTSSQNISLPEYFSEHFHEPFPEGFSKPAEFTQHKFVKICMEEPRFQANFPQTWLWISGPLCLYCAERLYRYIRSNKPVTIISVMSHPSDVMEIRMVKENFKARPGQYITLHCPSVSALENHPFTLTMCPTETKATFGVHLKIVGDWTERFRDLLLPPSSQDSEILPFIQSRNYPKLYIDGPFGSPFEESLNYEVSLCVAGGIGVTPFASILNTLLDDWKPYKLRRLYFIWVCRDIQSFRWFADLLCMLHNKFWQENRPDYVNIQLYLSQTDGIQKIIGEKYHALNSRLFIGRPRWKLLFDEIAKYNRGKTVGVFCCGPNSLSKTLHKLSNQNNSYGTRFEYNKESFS
Assay: Inhibition of human NOX4 assessed as reduction in ROS production using lucigenin as substrate in presence of NADPH by chemiluminescence based microplate reader analysis
Listed here are molecules together with their documented pIC50.
Quick note: pIC50 values are minus log10 of concentrations in mol/L.

**Query** Tell me pIC50 reported for CN1C(=S)N(C2CCCCC2)C(=O)/C1=C\c1ccc(N(C)CCCO)cc1O
**Result** 5.60

**Query** Tell me pIC50 reported for COc1cc(N(C)CCCO)ccc1/C=C1\C(=O)N(c2ccccc2)C(=S)N1C
**Result** 5.61

**Query** Tell me pIC50 reported for CN1C(=S)N(c2ccccc2)C(=O)/C1=C\c1ccc(N(C)CCCO)cc1
**Result** 5.47
